Biological target: human TLR7 (Homo sapiens)
Sequence (Q9NYK1 27-1049): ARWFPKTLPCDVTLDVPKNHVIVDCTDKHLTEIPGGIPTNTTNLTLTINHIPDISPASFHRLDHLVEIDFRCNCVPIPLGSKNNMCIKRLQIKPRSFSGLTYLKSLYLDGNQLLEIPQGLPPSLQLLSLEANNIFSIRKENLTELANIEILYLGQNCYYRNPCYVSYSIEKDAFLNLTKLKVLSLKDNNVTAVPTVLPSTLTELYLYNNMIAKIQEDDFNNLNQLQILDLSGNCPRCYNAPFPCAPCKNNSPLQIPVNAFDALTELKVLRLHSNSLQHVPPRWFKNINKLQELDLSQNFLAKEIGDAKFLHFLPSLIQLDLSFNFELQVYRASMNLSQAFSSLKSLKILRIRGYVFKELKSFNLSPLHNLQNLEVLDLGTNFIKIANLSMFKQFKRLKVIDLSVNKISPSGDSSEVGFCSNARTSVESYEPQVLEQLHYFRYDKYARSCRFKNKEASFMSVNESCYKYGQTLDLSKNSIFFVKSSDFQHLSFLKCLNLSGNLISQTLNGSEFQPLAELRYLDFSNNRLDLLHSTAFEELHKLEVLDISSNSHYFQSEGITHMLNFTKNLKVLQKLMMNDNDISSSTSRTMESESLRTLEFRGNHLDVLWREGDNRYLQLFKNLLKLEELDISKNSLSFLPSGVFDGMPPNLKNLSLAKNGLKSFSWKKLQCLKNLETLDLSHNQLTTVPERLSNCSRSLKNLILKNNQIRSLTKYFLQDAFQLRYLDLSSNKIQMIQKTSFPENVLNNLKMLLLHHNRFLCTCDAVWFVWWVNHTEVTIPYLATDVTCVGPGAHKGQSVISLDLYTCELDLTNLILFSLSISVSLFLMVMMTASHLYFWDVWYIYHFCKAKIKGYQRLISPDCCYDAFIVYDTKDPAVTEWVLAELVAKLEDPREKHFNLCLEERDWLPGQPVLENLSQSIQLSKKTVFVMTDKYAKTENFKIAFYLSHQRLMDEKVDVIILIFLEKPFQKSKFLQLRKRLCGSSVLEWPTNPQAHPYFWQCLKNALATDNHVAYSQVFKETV
Assay: TLR7 inhibition reporter assay (HEK-Blue cells, SEAP reporter, gardiquimod stimulation)
Details: HEK-Blue cells overexpressing human TLR7, SEAP reporter, gardiquimod 7.5 μM
Listing of recorded pIC50 by entry.
For clarity, pIC50 is expressed as the negative log10 of concentration in mol/L.

Below, 5 molecules whose answers are already recorded.
COc1cc(-c2[nH]nc(-c3ccc(C4CCN(CC(C)(C)O)CC4)cc3)c2C(C)C)cn2ncnc12 : 8.42
Cc1cc(-c2[nH]nc(C(=O)NC3CCN(CCN(C)C)CC3)c2C(C)C)cn2ncnc12 : 8.20
Cc1noc(C)c1CN[C@H]1CC[C@@H](NC(=O)c2n[nH]c(-c3cc(C)c4ncnn4c3)c2C(C)C)CC1 : 8.72
Cc1cc(-c2[nH]nc(-c3cnc(N(C)C)cn3)c2C(C)C)cn2ncnc12 : 8.87
Cc1cc(-c2[nH]nc(C(=O)NCC3CN(CC(C)(C)C)CCO3)c2C(C)C)cn2ncnc12 (stereo not shown) [Example 144] : 8.14

Problem: // query pIC50 value for entry Cc1cc(-c2c(C(C)C)c(C(=O)NC3CCN(CC(F)(F)F)CC3)nn2CC(F)(F)F)cn2ncnc12
Result: 8.42

Problem: // query pIC50 value for entry Cc1cc(-c2[nH]nc(C(=O)NCC3CN(C4COC4)CCO3)c2C(C)C)cn2ncnc12 (stereo not shown) [Example 142]
Result: 8.68

Problem: // query pIC50 value for entry Cc1cc(-c2[nH]nc(C(=O)N[C@H]3CCCNC3)c2C(C)C)cn2ncnc12
Result: 8.96

Problem: // query pIC50 value for entry Cc1cc(-c2[nH]nc(C(=O)NC3CCC(NC4(C)COC4)CC3)c2C(C)C)cn2ncnc12 (stereo not shown) [Example 123]
Result: 8.29

Problem: // query pIC50 value for entry Cc1cc(-c2[nH]nc(-c3nc4c(s3)CN(CC(=O)N(C)C)CC4)c2C(C)C)cn2ncnc12
Result: 6.38

Problem: // query pIC50 value for entry CCC(CC)CN[C@H]1CC[C@@H](NC(=O)c2n[nH]c(-c3cc(C)c4ncnn4c3)c2C(C)C)CC1
Result: 8.43

----------
Biological target: UniProtKB Q9NYK1
Assay: TLR7 inhibition reporter assay (HEK-Blue cells, SEAP reporter, gardiquimod stimulation)
Details: HEK-Blue cells overexpressing human TLR7, SEAP reporter, gardiquimod 7.5 μM
ENDPOINT_LABEL: pIC50
For clarity, pIC50 is expressed as the negative log10 of concentration in mol/L.

Below, 3 compounds whose answers are already recorded.
CCN1CCC(c2cnc(-c3n[nH]c(-c4cc(OC)c5ncnn5c4)c3C(C)C)cn2)CC1 [Example 382] : 8.63
Cc1cc(-c2[nH]nc(C(=O)N3CCN(c4ccncc4)CC3)c2C(C)C)cn2ncnc12 [Example 14] : 8.72
COc1cc(-c2[nH]nc(-c3cnc(C4CCN(C(C)C)CC4)cn3)c2C(C)C)cn2ncnc12 [Example 384] : 7.40

Problem: // query pIC50 value for entry COc1cc(-c2[nH]nc(-c3ccc(C4CN(C5CCOCC5)C4)cc3)c2C(C)C)cn2ncnc12 [Example 333]
Result: 7.46

Problem: // query pIC50 value for entry COc1cc(-c2[nH]nc(-c3ccc(C4CCN(CC#N)CC4)cn3)c2C(C)C)cn2ncnc12 [Example 394]
Result: 6.81

Problem: // query pIC50 value for entry COc1cc(-c2[nH]nc(-c3ccc(C4CCN(C(=O)CN(C)C)CC4)cn3)c2C(C)C)cn2ncnc12 [Example 402]
Result: 7.45

Problem: // query pIC50 value for entry Cc1cc(-c2[nH]nc(C(=O)NC3CCN(CC(F)(F)F)CC3)c2C(C)C)cn2ncnc12 [Example 173]
Result: 8.07

Problem: // query pIC50 value for entry Cc1cc(-c2[nH]nc(C(=O)NCC3CN(C4COC4)CCO3)c2C(C)C)cn2ncnc12 (centres unmarked) [Example 136]
Result: 8.77
